# System: mice bearing PSMA-expressing LNCAP cancer xenografts
# Protocol Description: Biodistribution of 68Ga-labeled compounds
# Assay type: in vivo
# Conditions Used: 3 h post-injection
Recorded Endpoint: Spleen uptake (% ID/g)
Provide only the numeric value, understood in % ID/g.

Molecule	Assay System	Spleen uptake / % ID/g
O=C([O-])CN1CCN(CC(=O)[O-])CCN(CC(=O)NCC2CCC(C(=O)NC(Cc3c4ccccc4cc4ccccc34)C(=O)NCCCCC(NC(=O)NC(CCC(=O)O)C(=O)O)C(=O)O)CC2)CCN(CC(=O)[O-])CC1.[68Ga+3] (centres unmarked) [^68Ga-HTK03041]	mice bearing PSMA-expressing LNCAP cancer xenografts	4.19

Would you kindly share the measured Spleen uptake for Nc1ccc(CCCC(=O)NCC(=O)N[C@@H](CCCCNC(=O)CN2CCN(CC(=O)[O-])CCN(CC(=O)[O-])CCN(CC(=O)[O-])CC2)C(=O)NC[C@H]2CC[C@H](C(=O)N[C@@H](Cc3ccc4ccccc4c3)C(=O)NCCCC[C@H](NC(=O)N[C@@H](CCC(=O)O)C(=O)O)C(=O)O)CC2)cc1.[68Ga+3] [^68Ga-HTK03087] ?
0.80
